# measured_target: T1, 4H2505-AA
# T1 chain: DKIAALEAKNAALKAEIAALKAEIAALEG
# assay_remarks: two-hybrid library CCmax;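 note: natural log of median RNA to DNA barcode read ratio; higher means stronger binding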
# run_conditions: mean of both orientations
The threshold is inclusive: interaction score of exactly -0.6 counts as TRUE; values below receive FALSE.

[[record]]
binder = "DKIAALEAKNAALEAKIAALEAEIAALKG [4H2466-AA]"
class_label = "TRUE"

[[record]]
binder = "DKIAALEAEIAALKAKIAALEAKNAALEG [4H2151-AA]"
class_label = "FALSE"

[[record]]
binder = "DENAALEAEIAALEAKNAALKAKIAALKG [4H1086-AA]"
class_label = "FALSE"

[[record]]
binder = "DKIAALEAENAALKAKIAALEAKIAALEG [4H2277-AA]"
class_label = "FALSE"

[[record]]
binder = "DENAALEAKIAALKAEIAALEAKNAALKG [4H1352-AA]"
class_label = "FALSE"

[[record]]
binder = "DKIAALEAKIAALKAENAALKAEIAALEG [4H2393-AA]"
class_label = "FALSE"

[[record]]
binder = "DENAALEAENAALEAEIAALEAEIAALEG [4H1153-AA]"
class_label = "TRUE"

[[record]]
binder = "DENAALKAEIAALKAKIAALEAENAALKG [4H1636-AA]"
class_label = "FALSE"

[[record]]
binder = "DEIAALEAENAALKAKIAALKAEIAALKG [4H234-AA]"
class_label = "TRUE"

[[record]]
binder = "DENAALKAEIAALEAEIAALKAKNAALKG [4H1552-AA]"
class_label = "FALSE"

[[record]]
binder = "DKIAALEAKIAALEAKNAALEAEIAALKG [4H2354-AA]"
class_label = "TRUE"

